tested on: Aspergillus oryzae; test: Antifungal activity against Aspergillus oryzae 1-Murasaki-1 after 24 hrs by twofold serial dilution method; format: functional; conditions: 1-Murasaki-1, 24 h
Documented MIC across a set of molecules
Just the number please, in µg/mL, no unit attached.

Past entries and their recorded results:
# Molecule smiles, MIC / µg/mL
rows = [
    ("CCCCCCCCCCCCNC(=O)[C@H]1CC(=O)N[C@H](CO)C(=O)N[C@H](Cc2ccc(O)cc2)C(=O)N[C@H](CC(N)=O)C(=O)NCC(=O)N[C@H](CC(N)=O)C(=O)N[C@H](CO)C(=O)N[C@@H](CC(N)=O)C(=O)N1", 200),
    ("CCCCCCCCCCCCNC(=O)[C@H]1CC(=O)N[C@H](CO)C(=O)N[C@H](Cc2ccc(O)cc2)C(=O)N[C@H](CC(N)=O)C(=O)NCC(=O)N[C@@H](CC(N)=O)C(=O)N[C@@H](CO)C(=O)N[C@H](CC(N)=O)C(=O)N1", 200),
    ("CCCCCCCCCCCCNC(=O)[C@@H]1CC(=O)N[C@H](CO)C(=O)N[C@H](Cc2ccc(O)cc2)C(=O)N[C@H](CC(N)=O)C(=O)NCC(=O)N[C@H](CC(N)=O)C(=O)N[C@H](CO)C(=O)N[C@H](CC(N)=O)C(=O)N1", 200),
]

Next, consider the following molecule.
Task: Record request: MIC value, item CCCCCCCCCCCCNC(=O)[C@H]1CC(=O)N[C@H](CO)C(=O)N[C@H](Cc2ccc(O)cc2)C(=O)N[C@H](CC(N)=O)C(=O)NCC(=O)N[C@@H](CC(N)=O)C(=O)N[C@H](CO)C(=O)N[C@H](CC(N)=O)C(=O)N1
Output: 200
